experiment: qHTS assay to identify small molecule agonists of H2AX (AID 1224845); conditions: CHO-K1 phospho-H2AX Ser139 HTRF, 3 h; series mostly up to 154 µM
Results filed as inconclusive are left out. Active and inactive are the calls of the source. The call rests on the fitted dose curve; in most records, active means well fitted activation curve with a large enough effect in the signal ratio in the repeat runs (not every such curve was filed as active); inconclusive means weak or mixed curves; inactive means flat fitted curve, though single readings scatter; the % refers to the signal ratio.
Respond using exactly one of the listed classes: True for active, False for inactive

compound=CC1(C)[C@H](C(=O)OCc2cccc(Oc3ccccc3)c2)[C@@H]1C=C(Cl)Cl classification=False

What was the test verdict on C[C@H]1O[C@@H](O[C@H]2CC[C@@]3(C)[C@H](CC[C@@H]4[C@@H]3C[C@@H](O)[C@]3(C)[C@@H](C5=CC(=O)OC5)CC[C@]43O)C2)C[C@H](O)[C@@H]1O[C@H]1C[C@H](O)[C@H](O[C@H]2C[C@H](O)[C@H](O[C@@H]3O[C@H](CO)[C@@H](O)[C@H](O)[C@H]3O)[C@@H](C)O2)[C@@H](C)O1 ?
False

What was the test verdict on CC(C)(C)c1ccc(OC2CCCCC2O)cc1 (configuration not stated) ?
False

What was the test verdict on CCc1cccc(CC)c1 ?
False

What was the test verdict on CCCCCCCCCCCCCCCCCCNC(=O)OC1CCN(C(=O)OC[C@H](COC(=O)N(Cc2cccc[n+]2CC)C(=O)c2ccccc2OC)OC)CC1 ?
False

What was the test verdict on CN(C[C@@H](CC[N+]12CCC(C3CCCCC3)(CC1)CC2)c1ccc(Cl)c(Cl)c1)C(=O)c1cc(C(F)(F)F)cc(C(F)(F)F)c1 ?
False

What was the test verdict on [Cl][Sc]([Cl])[Cl] ?
False

What was the test verdict on CCc1cccc(C)c1N(C(=O)CS(=O)(=O)O)C(C)COC (configuration not stated) ?
False

What was the test verdict on COC(=O)c1ccc([N+](=O)[O-])cc1 ?
False

What was the test verdict on C/C(=C\c1ccc(C(=O)O)cc1)c1ccc2c(c1)C(C)(C)CCC2(C)C ?
False

What was the test verdict on Cc1ccc2sc3cccc(C)c3c2c1 ?
False

What was the test verdict on O=C(Cl)c1ccc(Cl)cc1Cl ?
True

What was the test verdict on O=c1[nH]cccc1O ?
False

What was the test verdict on O=C(Nc1ccccc1)c1cc(Cl)ccc1O ?
False

What was the test verdict on Cc1cccc(C)c1C ?
False

What was the test verdict on Cc1c[nH]c(=O)[nH]c1=O ?
False

What was the test verdict on CCC1(C)C(=O)N(Cl)C(=O)N1Cl (configuration not stated) ?
False

What was the test verdict on [Cl][Dy]([Cl])[Cl] ?
False

---

Test: qHTS assay to test for compound auto fluorescence at 535 nm (green) in HEK293 cell free culture (AID 720682)
Details: cell-free medium, green autofluorescence 485/535 nm; series mostly up to 46 µM
Text: U.S. Tox21 Program National Center for Advancing Translational Sciences [NCATS] NIH Chemical Genomics Center [NCGC] U.S. Environmental Protection Agency [EPA] National Institutes of Environmental Health Sciences [NIEHS] National Toxicology Program [NTP] U.S. Food and Drug Administration [FDA] Tox21 Assay Overview: Compound auto fluorescence often interferes with screening of the compound library against various biological targets and signaling pathways. […] This assay includes the green fluorescence data. […]
Activity calls are given as the source filed them. The call rests on the fitted dose curve; in most records, active means well fitted curve in the direction sought with a large enough effect in the repeat runs; inconclusive means weak or mixed curves; inactive means flat fitted curve, though single readings scatter.
ASSAY_METRIC: outcome

# annotated cases, reported outcome shown
compound=NC(=O)[C@@H]1C[C@]2(NC(=O)NC2=O)c2cc(F)ccc2O1 measured_result=inactive
compound=Cc1cc(N)c2ccccc2[n+]1CCCCCCCCCC[n+]1c(C)cc(N)c2ccccc21 measured_result=inactive
compound=OCCCNc1ccccc1 measured_result=inactive
compound=Cc1ncc(C[n+]2csc(CCOP(=O)(O)O)c2C)c(N)n1 measured_result=inactive
compound="COC1[C@@H](O[C@@H]2O[C@H](C)[C@@H](O[C@H]3C[C@@](C)(O)[C@H](OC(=O)CC(C)C)[C@H](C)O3)[C@H](N(C)C)[C@H]2O)[C@@H](CC=O)C[C@@H](C)[C@@H](O)/C=C/C=C/C[C@@H](C)OC(=O)C[C@H]1OC(C)=O (some centres undefined)" measured_result=inactive
compound="CC[C@@]1([C@@H]2O[C@@H]([C@H]3O[C@@](O)(CO)[C@H](C)C[C@@H]3C)C[C@@H]2C)CC[C@H]([C@]2(C)CC[C@]3(C[C@H](O)[C@@H](C)[C@@H]([C@@H](C)[C@@H](OC)[C@H](C)C(=O)O)O3)O2)O1 (stereo in doubt)" measured_result=inactive
compound="Cc1cccc(C)c1NC(=O)C1CCCCN1C (centres undefined)" measured_result=inactive
compound=CCOC(=O)[C@H](CCc1ccccc1)N[C@@H](C)C(=O)N1[C@H](C(=O)O)C[C@H]2CCCC[C@@H]21 measured_result=inactive

Return reported outcome; argument: NCC(O)CC(=O)O (centres undefined)
inactive

// provenance: PubChem BioAssay (Tox21)
